type: in vivo, C57BL/6J mice; settings: male, C57BL/6J, mouse, brain, po, 200 mg/kg
recorded_endpoint: half-life (min)

| molecule | recorded_endpoint | result_unit | meas_value |
| --- | --- | --- | --- |
| OCCc1ccc(O)c(O)c1 [3,4-DHPE, 2-(3,4-dihydroxyphenyl)ethanol] | half-life | min | 21 |

P. OCCc1ccc(O)cc1 [4-HPE, 2-(4-hydroxyphenyl)ethanol]
Q. CC(=O)CCc1ccc(O)cc1 [RK, 4-(4-hydroxyphenyl)-2-butanone]
Incoming: In the pair P and Q , the larger recorded half-life belongs to which? Write the label of whichever entry you select.
Outgoing: P
(P: 64.7 min, Q: 25.7 min)

1. COc1cc(CCC(C)=O)ccc1O
2. CC(=O)C=Cc1ccc(O)c(O)c1 [DHPhLiAce, 3,4-dihydroxybenzylideneacetone]
Incoming: In the pair 1 and 2 , the larger recorded half-life belongs to which? Write the label of whichever entry you select.
Outgoing: 1

====

assay type: in vivo, C57BL/6J mice; settings: male, C57BL/6J, mouse, brain, po, 200 mg/kg
recorded_endpoint: Tmax (min)

| molecule | meas_value |
| --- | --- |
| OCCc1ccc(O)c(O)c1 [3,4-DHPE, 2-(3,4-dihydroxyphenyl)ethanol] | 15 |
| CC(=O)CCc1ccc(O)cc1 [RK, 4-(4-hydroxyphenyl)-2-butanone] | 15 |
| OCCc1ccc(O)cc1 [4-HPE, 2-(4-hydroxyphenyl)ethanol] | 15 |
| CC(=O)C=Cc1ccc(O)c(O)c1 [DHPhLiAce, 3,4-dihydroxybenzylideneacetone] | 20 |
| COc1cc(CCC(C)=O)ccc1O | 15 |

====

assay type: in vivo, C57BL/6J mice; settings: Br-M: brain, male LFD mice; single oral RK 200 mg kg^−1; mean±SEM
recorded_endpoint: Cmax (nmol/g)

| compound | result_unit | Cmax |
| --- | --- | --- |
| CC(=O)CCc1ccc(O)cc1 [RK, 4-(4-hydroxyphenyl)-2-butanone] | nmol/g | 28.9 |

P. CC(O)CCc1ccc(O)cc1 (stereo not drawn) [ROH, raspberry alcohol]
Q. COc1cc(CCC(C)=O)ccc1O [VLAce, vanillylacetone]
R. OCCc1ccc(O)cc1 [4-HPE, 2-(4-hydroxyphenyl)ethanol]
S. OCCc1ccc(O)c(O)c1 [3,4-DHPE, 2-(3,4-dihydroxyphenyl)ethanol]
T. CC(=O)C=Cc1ccc(O)c(O)c1 [DHPhLiAce, 3,4-dihydroxybenzylideneacetone]
Incoming: Rank descending by Cmax. Could you list the labels in the order requested?
Outgoing: P, Q, R, T, S
(P: 21.0 nmol/g, Q: 1.51 nmol/g, R: 1.03 nmol/g, T: 0.067 nmol/g, S: 0.021 nmol/g)

====

test: Plasma pharmacokinetics after a single oral RK dose, normal-weight; assay type: in vivo, C57BL/6J mice; settings: male, C57BL/6J, mouse, plasma, po, 200 mg/kg, T1/2 (elimination half-life), Pl-O: plasma, obese male mice; single oral RK 200 mg kg^−1
recorded_endpoint: half-life (min)

| molecule | meas_value |
| --- | --- |
| OCCc1ccc(O)c(O)c1 [3,4-DHPE, 2-(3,4-dihydroxyphenyl)ethanol] | 51.7 |

P. OCCc1ccc(O)cc1 [4-HPE, 2-(4-hydroxyphenyl)ethanol]
Q. CC(=O)CCc1ccc(O)cc1 [RK, 4-(4-hydroxyphenyl)-2-butanone]
Incoming: Kindly identify the item with the lower half-life figure among these two: P and Q Write the label of whichever entry you select.
Outgoing: P

A. COc1ccc(CCC(C)=O)cc1 [RK-Me, 4-(4-methoxy-phenyl)-2-butanone]
B. COc1cc(CCC(C)=O)ccc1O [VLAce, vanillylacetone]
Incoming: Kindly identify the item with the lower half-life figure among these two: A and B Write the label of whichever entry you select.
Outgoing: A
(A: 41.7 min, B: 68.8 min)
